# Kd listing for each entry below
Molecular target: T1, Rnd2 GTPase (residues 1-227), loaded with GMPPNP (UniProt P52198 1-227)
T1 sequence (looked up): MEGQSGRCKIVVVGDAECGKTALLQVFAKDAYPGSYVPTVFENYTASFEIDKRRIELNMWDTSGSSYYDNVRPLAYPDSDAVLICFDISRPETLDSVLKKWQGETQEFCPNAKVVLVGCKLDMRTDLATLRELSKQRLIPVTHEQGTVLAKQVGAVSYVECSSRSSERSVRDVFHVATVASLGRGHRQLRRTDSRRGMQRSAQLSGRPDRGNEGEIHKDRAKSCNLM
Assay: ITC
Write down the numeric answer in µM and omit the unit.

Per the record, plexin-A2 Rho GTPase binding domain (RBD), residues 1490-1600 (domain or fragment, human, UniProt O75051 1490-1600, looked up) LIRQQIEYKTLILNCVNPDNENSPEIPVKVLNCDTITQVKEKILDAVYKNVPYSQRPRAVDMDLEWRQGRIARVVLQDEDITTKIEGDWKRLNTLMHYQVSDRSVVALVPK has Kd of 10.7

Per the record, plexin-D1 RBD S1614V/T1615A (domain or fragment) AKPRNLNVSFQGCGMDSLSVRAMDTDTLTQVKEKILEAFCKNVPYSQWPRAEDVDLEWFASVAQSYILRDLDDTSVVEDGRKKLNTLAHYKIPEGASLAMSLIDKKDNTLGRVKDLDTEKYFHLVL has Kd of 7.7

Per the record, plexin-D1 RBD Y1618L (domain or fragment) AKPRNLNVSFQGCGMDSLSVRAMDTDTLTQVKEKILEAFCKNVPYSQWPRAEDVDLEWFASSTQSLILRDLDDTSVVEDGRKKLNTLAHYKIPEGASLAMSLIDKKDNTLGRVKDLDTEKYFHLVL has Kd of 14.2

// provenance: paper PMC3138255
